assay: Approximate solubility in various solvents by aliquot addition, visual dissolution; format: physicochemical; details: organic solvent or mixture, thermodynamic from solid, solvent: Chloroform; amorphous obtained by Preparation Method 3
measurement kind: solubility

Sample Cc1ccsc1C(=CCCN1CCC[C@@H](C(=O)O)C1)c1sccc1C.Cl [tiagabine HCl amorphous, tiagabine hydrochloride] — what was its solubility? > 582 mg/mL

---

assay: Approximate solubility in various solvents by aliquot addition, visual dissolution; format: physicochemical; conditions: aqueous with cosolvent or surfactant or cyclodextrin, thermodynamic from solid, solvent: 2-propanol/water (1:1); amorphous obtained by Preparation Method 3
measurement kind: solubility

Need solubility, item Cc1ccsc1C(=CCCN1CCC[C@@H](C(=O)O)C1)c1sccc1C.Cl [tiagabine HCl amorphous, tiagabine hydrochloride] > 129 mg/mL
